TEST SUMMARY: Pharmacokinetic study in cynomolgus monkeys after oral (nasogastric) gavage, sublingual and intravenous administration
Assay type: in vivo
TEST CONDITIONS: both sexes, cynomolgus monkey, plasma, oral, 30 mg/kg, Plasma Bumetanide Dibenzylamide concentration, Median, monkey, NG 30 mg/kg, First Formulation (Form 1), 8.00 h, N=4
OBSERVED PROPERTY: concentration at 8 h

Give its concentration at 8 h value. Item: CCCCNc1cc(C(=O)N(Cc2ccccc2)Cc2ccccc2)cc(S(N)(=O)=O)c1Oc1ccccc1 [Bumetanide Dibenzylamide]
31.3 ng/mL

----------
TEST SUMMARY: Crossover pharmacokinetic study of Bumetanide Dibenzylamide formulations (IN, SL, IM, PO, SC, IR) in Beagle dogs, plasma LC-MS/MS
Type: in vivo
TEST CONDITIONS: both sexes, Beagle, dog, plasma, inhaled or intranasal, 15 mg, IN
OBSERVED PROPERTY: AUC(0-inf)
In your response, put the unit directly after the numeric value.

Give its AUC(0-inf) value. Item: CCCCNc1cc(C(=O)N(Cc2ccccc2)Cc2ccccc2)cc(S(N)(=O)=O)c1Oc1ccccc1 [Bumetanide Dibenzylamide]
211 ng·h/mL

----------
TEST SUMMARY: Pharmacokinetic study in cynomolgus monkeys after oral (nasogastric) gavage, sublingual and intravenous administration
Assay type: in vivo
TEST CONDITIONS: both sexes, cynomolgus monkey, plasma, oral, 30 mg/kg, Plasma Bumetanide Dibenzylamide concentration, Mean, monkey, NG 30 mg/kg, Second Formulation (Form 3), 4.00 h, N=4
OBSERVED PROPERTY: concentration at 4 h (ng/mL)
I only need the number, in ng/mL, no unit after it.

Give its concentration at 4 h value. Item: CCCCNc1cc(C(=O)N(Cc2ccccc2)Cc2ccccc2)cc(S(N)(=O)=O)c1Oc1ccccc1 [Bumetanide Dibenzylamide]
231

----------
TEST SUMMARY: Pharmacokinetic study in cynomolgus monkeys after oral (nasogastric) gavage, sublingual and intravenous administration
Type: in vivo
TEST CONDITIONS: both sexes, cynomolgus monkey, plasma, oral, 30 mg/kg, Plasma Bumetanide Dibenzylamide concentration, Mean, monkey, NG 30 mg/kg, Second Formulation (Form 3), 0.25 h, N=4
OBSERVED PROPERTY: concentration at 0.25 h (ng/mL)
I only need the number, in ng/mL, no unit after it.

Give its concentration at 0.25 h value. Item: CCCCNc1cc(C(=O)N(Cc2ccccc2)Cc2ccccc2)cc(S(N)(=O)=O)c1Oc1ccccc1 [Bumetanide Dibenzylamide]
0.283

----------
TEST SUMMARY: Oral delivery of unformulated Bumetanide Dibenzylamide in Beagle dogs, pharmacokinetics and bioavailability
Format: in vivo
TEST CONDITIONS: Beagle, dog, plasma, oral, 30 mg/kg, Plasma Bumetanide Dibenzylamide concentration, oral non-formulated 30 mg/kg, 4 h
OBSERVED PROPERTY: concentration at 4 h (ng/mL)
I only need the number, in ng/mL, no unit after it.

Give its concentration at 4 h value. Item: CCCCNc1cc(C(=O)N(Cc2ccccc2)Cc2ccccc2)cc(S(N)(=O)=O)c1Oc1ccccc1 [Bumetanide Dibenzylamide]
149

----------
TEST SUMMARY: Pharmacokinetic study in cynomolgus monkeys after oral (nasogastric) gavage, sublingual and intravenous administration
Assay type: in vivo
TEST CONDITIONS: cynomolgus monkey, plasma, other: sublingual, 5 mg/kg, Plasma Bumetanide Dibenzylamide concentration, Mean, monkey, SL, dose column 5 mg/kg (title 30 mg/kg), Fourth Formulation (Form 2), 4.0 h, N=4
OBSERVED PROPERTY: concentration at 4 h
In your response, put the unit directly after the numeric value.

Give its concentration at 4 h value. Item: CCCCNc1cc(C(=O)N(Cc2ccccc2)Cc2ccccc2)cc(S(N)(=O)=O)c1Oc1ccccc1 [Bumetanide Dibenzylamide]
0.114 ng/mL

Each recorded value in this set is attributed to patent US20250120932A1.
